Tested on: PfSIP2 AP2 domain 1 (GST-tagged)
Procedure text: gcPBM binding intensity (ln(normalized median fluorescence intensity)); higher = stronger DNA binding
The full ranking holds about 25,000 sequences; the median of “ln(normalized median fluorescence intensity)” is about 7.1, and the highest 2% start at about 10. Shown is part of a subset that was picked to be rich in the highest values.

{"Sequence input": "TAAGAAATAAATAGTACACACATAGACACCCACCCA [CACACA_site8429]", "Tgt": "PfSIP2 AP2 domain 1 (GST-tagged)", "gcPBM binding intensity (ln)": 7.39}
{"Sequence input": "ACATTAAGACACATTGCACACGTGCACCCATAGAAA [CACACA_site8029]", "Tgt": "PfSIP2 AP2 domain 1 (GST-tagged)", "gcPBM binding intensity (ln)": 12}
{"Sequence input": "AAGGAGCCTATGAACACACACATGTACATATATTAA [CACACA_site4084]", "Tgt": "PfSIP2 AP2 domain 1 (GST-tagged)", "gcPBM binding intensity (ln)": 7.03}
{"Sequence input": "AAGAATATATAGGACACACATACAATAATAAATATA [CACACA_site4119]", "Tgt": "PfSIP2 AP2 domain 1 (GST-tagged)", "gcPBM binding intensity (ln)": 7.25}
{"Sequence input": "CATATTCCCCCCCACACACACACACCCATACATACC [CACACA_site2303]", "Tgt": "PfSIP2 AP2 domain 1 (GST-tagged)", "gcPBM binding intensity (ln)": 10.2}
{"Sequence input": "ATGGATTATACGTGCACACATATATACCAATAAATA [CACACA_site4524]", "Tgt": "PfSIP2 AP2 domain 1 (GST-tagged)", "gcPBM binding intensity (ln)": 10.5}
{"Sequence input": "TTAAAAATAAATTCATGTACATAATATATATATATA [XGTACX_site7908]", "Tgt": "PfSIP2 AP2 domain 1 (GST-tagged)", "gcPBM binding intensity (ln)": 9.25}
{"Sequence input": "TAAGAAATAAATAGTACACACATAGACACACGCACA [CACACA_site6821]", "Tgt": "PfSIP2 AP2 domain 1 (GST-tagged)", "gcPBM binding intensity (ln)": 8}
{"Sequence input": "TCTTTTCTCGGAAGGGTGCAAGGAATTAATGAAATA [GTGCAC_site9706]", "Tgt": "PfSIP2 AP2 domain 1 (GST-tagged)", "gcPBM binding intensity (ln)": 11.1}
{"Sequence input": "AAAAAAAAGTTGTAAGTGCATGTATATAATAATATT", "Tgt": "PfSIP2 AP2 domain 1 (GST-tagged)", "gcPBM binding intensity (ln)": 8.08}
{"Sequence input": "CATATTCCCCCCCACACACACACACGCATACATACC [CACACA_site7148]", "Tgt": "PfSIP2 AP2 domain 1 (GST-tagged)", "gcPBM binding intensity (ln)": 10.1}
{"Sequence input": "TCTTTCCTTATTAAAACACACAAATACATTATTTAA [CACACA_site2147]", "Tgt": "PfSIP2 AP2 domain 1 (GST-tagged)", "gcPBM binding intensity (ln)": 7.13}
{"Sequence input": "ATTTTGTGTAGTGATGCATGTTATATATATATTTGA [TGCATGCA_site422]", "Tgt": "PfSIP2 AP2 domain 1 (GST-tagged)", "gcPBM binding intensity (ln)": 7.33}
{"Sequence input": "TATGCAAGGAACCACACACACACACGGAAATGTATA [CACACA_site6490]", "Tgt": "PfSIP2 AP2 domain 1 (GST-tagged)", "gcPBM binding intensity (ln)": 6.94}
{"Sequence input": "TCATATATATTATACACACACATATATAAATATATA [CACACA_site967]", "Tgt": "PfSIP2 AP2 domain 1 (GST-tagged)", "gcPBM binding intensity (ln)": 7.03}
{"Sequence input": "AATAATAAAATAAAGGCATGCACAATATGCTATAAA [TGCATGCA_site645]", "Tgt": "PfSIP2 AP2 domain 1 (GST-tagged)", "gcPBM binding intensity (ln)": 7.49}
{"Sequence input": "AAATATAATAATAATTTAAGAATCTAATATTTTATA [CACACA_negctrl_site831]", "Tgt": "PfSIP2 AP2 domain 1 (GST-tagged)", "gcPBM binding intensity (ln)": 6.59}
{"Sequence input": "TATAAATACATACGTACACACAAATATTAAAATATA [CACACA_site5129]", "Tgt": "PfSIP2 AP2 domain 1 (GST-tagged)", "gcPBM binding intensity (ln)": 7.35}
{"Sequence input": "AAAAAAAAAAAAAAAGTGCATATATAAATATTGTAT [GTGCAC_site9459]", "Tgt": "PfSIP2 AP2 domain 1 (GST-tagged)", "gcPBM binding intensity (ln)": 9.58}
{"Sequence input": "GAGAAATTTATACATACACACATATATATATTATAT [CACACA_site4038]", "Tgt": "PfSIP2 AP2 domain 1 (GST-tagged)", "gcPBM binding intensity (ln)": 7.16}
{"Sequence input": "ATATAAATTGGCAATAGTACATAAAGGCATAGAAAG [XGTACX_site2674]", "Tgt": "PfSIP2 AP2 domain 1 (GST-tagged)", "gcPBM binding intensity (ln)": 7.31}
{"Sequence input": "TTATAATATGGATACACACACATATATAAATATATA [CACACA_site5314]", "Tgt": "PfSIP2 AP2 domain 1 (GST-tagged)", "gcPBM binding intensity (ln)": 6.98}
{"Sequence input": "GGTAGAAAATCAGTTAAACACACACCGAAAAAAAAA [CACACA_site8934]", "Tgt": "PfSIP2 AP2 domain 1 (GST-tagged)", "gcPBM binding intensity (ln)": 7.24}
{"Sequence input": "GAAATAATTTCATATACACACATATACATACATACA [CACACA_site1358]", "Tgt": "PfSIP2 AP2 domain 1 (GST-tagged)", "gcPBM binding intensity (ln)": 7.5}
{"Sequence input": "ATATTACACATATATGCACACATTGTAGTTATTTAT [CACACA_site8843]", "Tgt": "PfSIP2 AP2 domain 1 (GST-tagged)", "gcPBM binding intensity (ln)": 9.43}
{"Sequence input": "TTAAAGTTACATTCGACACACACATAACAACTAAAT [CACACA_site9130]", "Tgt": "PfSIP2 AP2 domain 1 (GST-tagged)", "gcPBM binding intensity (ln)": 7.1}
{"Sequence input": "TTTTGTAATGTGAATATTTGTATATTATTTGTATAT [CACACA_negctrl_site1677]", "Tgt": "PfSIP2 AP2 domain 1 (GST-tagged)", "gcPBM binding intensity (ln)": 7.03}
{"Sequence input": "ATTGTGCACTTATATGCACACATTTTAGTTTTTTTT [CACACA_site2028]", "Tgt": "PfSIP2 AP2 domain 1 (GST-tagged)", "gcPBM binding intensity (ln)": 10.6}
{"Sequence input": "TTATATTAATTTTGTTGTACTATTTGTGCATTAAAT [XGTACX_site4790]", "Tgt": "PfSIP2 AP2 domain 1 (GST-tagged)", "gcPBM binding intensity (ln)": 7.42}
{"Sequence input": "TAAGAAATAAATAGTACACACATAGACACCCACCGA [CACACA_site1516]", "Tgt": "PfSIP2 AP2 domain 1 (GST-tagged)", "gcPBM binding intensity (ln)": 7.3}
{"Sequence input": "AAGGCAAGCACTTAAACATGCATATAATAATATCAT [TGCATGCA_site698]", "Tgt": "PfSIP2 AP2 domain 1 (GST-tagged)", "gcPBM binding intensity (ln)": 7.36}
{"Sequence input": "ATATATATATAAAGTTGTACATTTTTTATTTTTTCA [XGTACX_site7847]", "Tgt": "PfSIP2 AP2 domain 1 (GST-tagged)", "gcPBM binding intensity (ln)": 9.04}
{"Sequence input": "AGGATATAAAGTTGTGCATGTCAAGTGCACCGTATT [TGCATGCA_site451]", "Tgt": "PfSIP2 AP2 domain 1 (GST-tagged)", "gcPBM binding intensity (ln)": 12.2}
{"Sequence input": "GACATATTCCCCCCCACACACACACCCACATACATA [CACACA_site2302]", "Tgt": "PfSIP2 AP2 domain 1 (GST-tagged)", "gcPBM binding intensity (ln)": 9.81}
{"Sequence input": "TAATGGATTATACGTGCACACATATATACAAATAAA [CACACA_site8116]", "Tgt": "PfSIP2 AP2 domain 1 (GST-tagged)", "gcPBM binding intensity (ln)": 10.5}
{"Sequence input": "ATTAAGACACATTGCACACGTGCACCCATAGAAAAA [CACACA_site408]", "Tgt": "PfSIP2 AP2 domain 1 (GST-tagged)", "gcPBM binding intensity (ln)": 12.2}
{"Sequence input": "ATGGTATAAAAAAATACACACTTATATATATTCTTA [CACACA_site4427]", "Tgt": "PfSIP2 AP2 domain 1 (GST-tagged)", "gcPBM binding intensity (ln)": 6.86}
{"Sequence input": "TTTTTTGTTTGAATGGTGCATTTTGTAATTATATTT", "Tgt": "PfSIP2 AP2 domain 1 (GST-tagged)", "gcPBM binding intensity (ln)": 10.6}
{"Sequence input": "CCATTAAGACACATTGCACACGTGCACCCATAGAAA [CACACA_site4388]", "Tgt": "PfSIP2 AP2 domain 1 (GST-tagged)", "gcPBM binding intensity (ln)": 12.4}

Source of measurements: the supplement of paper PMC11417369
